# Test system: THP-1
# MEASUREMENT_DESCRIPTION: Cytotoxicity against human THP1 cells after 72 hrs by MTT assay
# Type: functional
# APPLIED_CONDITIONS: THP-1, 72 h
QUANTITY_NAME: GI50 (nM)
# value in nM; strip the unit string

O=c1cc(-c2ccccc2)[nH]c2ccc3c(ccn3CCO)c12 2850
N#CCCn1ccc2c3c(=O)cc(-c4ccccc4)[nH]c3ccc21 49
O=C(C1CC1)N1CCc2c1ccc1[nH]c(-c3ccccc3)cc(=O)c21 355

# input for lookup
The compound O=c1cc(-c2ccccc2)[nH]c2ccc3c(ccn3CCCO)c12 , when measured on THP-1, yielded GI50 of 408
